tested on: SNB-19 CNS; test: NCI-60 one-dose screen, 48 h; conditions: 10 µM
Compounds without any hit were thinned out: in the full panel of roughly 83,000, 20% have a hit. Calls of active or inactive are those of the source. The calls were made as follows: active = growth percent below 10; inactive = the rest.
Answer with one of the outcomes active, inactive

• COc1cc(C2CC(c3ccccc3)=Nc3c(N)nc(N)nc3N2)ccc1Oc1nc(Nc2ccc(F)cc2)nc(N(C)C)n1 (configuration not stated) = inactive
• C=C[C@@]12CN3CC[C@]1(O)[C@@](C(=O)OC)(CO2)c1[nH]c2ccccc2c1C3 = inactive
• Cc1ccc(-c2cc(C(=O)N=Nc3c(O)[nH]c4ccc(Br)cc34)c3ccccc3n2)cc1 = inactive
• O=C(Nc1ccc(I)cc1F)c1cc(-c2ccc(F)cc2F)ccc1O = inactive
• Cc1cc2nc3c4ccccc4n(CCO)c3nc2cc1C = inactive

Short answer needed: outcome of this test for `CCN1CCN(Cc2ccc(C(=O)Nc3cccc(-c4cn(-c5ccc6oc(=O)ccc6c5)nn4)c3)cc2C(F)(F)F)CC1` ?
active

Fill in: this test's call for `COc1ccc(C=CC(=O)c2ccc(-n3c(C)nc4c(cnn4-c4ccccc4)c3=O)cc2)cc1` is ___
inactive
